Molecular target: T1, human Trop2 on cells (human, UniProt P09758 27-323)
T1 sequence (looked up): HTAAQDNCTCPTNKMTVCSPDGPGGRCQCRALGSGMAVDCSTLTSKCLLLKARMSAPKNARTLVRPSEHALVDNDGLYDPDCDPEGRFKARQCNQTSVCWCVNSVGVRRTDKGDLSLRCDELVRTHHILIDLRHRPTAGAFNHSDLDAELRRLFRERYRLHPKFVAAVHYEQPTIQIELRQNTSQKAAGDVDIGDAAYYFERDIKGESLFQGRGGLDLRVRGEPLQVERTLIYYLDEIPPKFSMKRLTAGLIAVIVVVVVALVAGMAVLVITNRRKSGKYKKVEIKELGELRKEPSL
Assay: cell-based or functional assay
# ADCC (donor 1152#) Maximum cell killing % per record follows
PARAMETER: ADCC (donor 1152#) Maximum cell killing %

BINDER	VALUE OBSERVED
PR001166 (antibody, human IgG1, kappa, V domains shown, fully human IgG1/kappa; also called antibody No. (27)) VH: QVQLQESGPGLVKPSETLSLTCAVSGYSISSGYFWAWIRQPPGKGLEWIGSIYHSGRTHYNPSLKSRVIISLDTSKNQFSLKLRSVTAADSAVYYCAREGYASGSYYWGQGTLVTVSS VL: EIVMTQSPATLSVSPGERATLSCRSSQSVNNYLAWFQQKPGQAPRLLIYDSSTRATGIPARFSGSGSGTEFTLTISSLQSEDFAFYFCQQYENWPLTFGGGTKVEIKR	36.5%
comparative example 2 antibody Tab (hRS7) (antibody, human IgG1, kappa, V domains shown, prepared on the basis of sacituzumab govitecan (ChemPartner, #T07-001); naked antibody) VH: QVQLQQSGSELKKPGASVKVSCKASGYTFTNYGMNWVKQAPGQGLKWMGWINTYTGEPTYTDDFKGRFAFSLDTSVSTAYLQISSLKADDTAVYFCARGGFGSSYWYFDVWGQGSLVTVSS VL: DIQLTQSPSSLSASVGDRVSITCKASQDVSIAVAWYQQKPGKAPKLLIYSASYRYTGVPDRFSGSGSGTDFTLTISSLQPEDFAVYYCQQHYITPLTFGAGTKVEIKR	42.1%
PR001142 (antibody, human IgG1, kappa, V domains shown, fully human IgG1/kappa; also called antibody No. (9)) VH: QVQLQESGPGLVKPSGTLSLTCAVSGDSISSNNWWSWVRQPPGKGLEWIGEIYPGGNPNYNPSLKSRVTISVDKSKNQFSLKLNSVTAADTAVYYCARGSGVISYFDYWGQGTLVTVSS VL: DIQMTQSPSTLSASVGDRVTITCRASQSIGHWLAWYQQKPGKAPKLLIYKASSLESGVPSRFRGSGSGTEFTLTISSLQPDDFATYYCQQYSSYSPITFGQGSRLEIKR	41.6%
PR001165 (antibody, human IgG1, kappa, V domains shown, fully human IgG1/kappa; also called antibody No. (26)) VH: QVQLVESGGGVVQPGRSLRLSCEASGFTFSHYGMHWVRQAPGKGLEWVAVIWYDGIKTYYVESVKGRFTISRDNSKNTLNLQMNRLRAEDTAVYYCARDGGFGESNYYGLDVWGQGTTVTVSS VL: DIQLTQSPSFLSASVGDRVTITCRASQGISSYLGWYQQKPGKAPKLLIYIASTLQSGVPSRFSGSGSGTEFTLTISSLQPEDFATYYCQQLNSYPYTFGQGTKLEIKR	39%
